Molecular target: ATM kinase (Homo sapiens, UniProt Q13315)
Construct: endogenous in cells; host or cells: HT29 cells (ECACC #85061109)
Sequence (Q13315 whole entry): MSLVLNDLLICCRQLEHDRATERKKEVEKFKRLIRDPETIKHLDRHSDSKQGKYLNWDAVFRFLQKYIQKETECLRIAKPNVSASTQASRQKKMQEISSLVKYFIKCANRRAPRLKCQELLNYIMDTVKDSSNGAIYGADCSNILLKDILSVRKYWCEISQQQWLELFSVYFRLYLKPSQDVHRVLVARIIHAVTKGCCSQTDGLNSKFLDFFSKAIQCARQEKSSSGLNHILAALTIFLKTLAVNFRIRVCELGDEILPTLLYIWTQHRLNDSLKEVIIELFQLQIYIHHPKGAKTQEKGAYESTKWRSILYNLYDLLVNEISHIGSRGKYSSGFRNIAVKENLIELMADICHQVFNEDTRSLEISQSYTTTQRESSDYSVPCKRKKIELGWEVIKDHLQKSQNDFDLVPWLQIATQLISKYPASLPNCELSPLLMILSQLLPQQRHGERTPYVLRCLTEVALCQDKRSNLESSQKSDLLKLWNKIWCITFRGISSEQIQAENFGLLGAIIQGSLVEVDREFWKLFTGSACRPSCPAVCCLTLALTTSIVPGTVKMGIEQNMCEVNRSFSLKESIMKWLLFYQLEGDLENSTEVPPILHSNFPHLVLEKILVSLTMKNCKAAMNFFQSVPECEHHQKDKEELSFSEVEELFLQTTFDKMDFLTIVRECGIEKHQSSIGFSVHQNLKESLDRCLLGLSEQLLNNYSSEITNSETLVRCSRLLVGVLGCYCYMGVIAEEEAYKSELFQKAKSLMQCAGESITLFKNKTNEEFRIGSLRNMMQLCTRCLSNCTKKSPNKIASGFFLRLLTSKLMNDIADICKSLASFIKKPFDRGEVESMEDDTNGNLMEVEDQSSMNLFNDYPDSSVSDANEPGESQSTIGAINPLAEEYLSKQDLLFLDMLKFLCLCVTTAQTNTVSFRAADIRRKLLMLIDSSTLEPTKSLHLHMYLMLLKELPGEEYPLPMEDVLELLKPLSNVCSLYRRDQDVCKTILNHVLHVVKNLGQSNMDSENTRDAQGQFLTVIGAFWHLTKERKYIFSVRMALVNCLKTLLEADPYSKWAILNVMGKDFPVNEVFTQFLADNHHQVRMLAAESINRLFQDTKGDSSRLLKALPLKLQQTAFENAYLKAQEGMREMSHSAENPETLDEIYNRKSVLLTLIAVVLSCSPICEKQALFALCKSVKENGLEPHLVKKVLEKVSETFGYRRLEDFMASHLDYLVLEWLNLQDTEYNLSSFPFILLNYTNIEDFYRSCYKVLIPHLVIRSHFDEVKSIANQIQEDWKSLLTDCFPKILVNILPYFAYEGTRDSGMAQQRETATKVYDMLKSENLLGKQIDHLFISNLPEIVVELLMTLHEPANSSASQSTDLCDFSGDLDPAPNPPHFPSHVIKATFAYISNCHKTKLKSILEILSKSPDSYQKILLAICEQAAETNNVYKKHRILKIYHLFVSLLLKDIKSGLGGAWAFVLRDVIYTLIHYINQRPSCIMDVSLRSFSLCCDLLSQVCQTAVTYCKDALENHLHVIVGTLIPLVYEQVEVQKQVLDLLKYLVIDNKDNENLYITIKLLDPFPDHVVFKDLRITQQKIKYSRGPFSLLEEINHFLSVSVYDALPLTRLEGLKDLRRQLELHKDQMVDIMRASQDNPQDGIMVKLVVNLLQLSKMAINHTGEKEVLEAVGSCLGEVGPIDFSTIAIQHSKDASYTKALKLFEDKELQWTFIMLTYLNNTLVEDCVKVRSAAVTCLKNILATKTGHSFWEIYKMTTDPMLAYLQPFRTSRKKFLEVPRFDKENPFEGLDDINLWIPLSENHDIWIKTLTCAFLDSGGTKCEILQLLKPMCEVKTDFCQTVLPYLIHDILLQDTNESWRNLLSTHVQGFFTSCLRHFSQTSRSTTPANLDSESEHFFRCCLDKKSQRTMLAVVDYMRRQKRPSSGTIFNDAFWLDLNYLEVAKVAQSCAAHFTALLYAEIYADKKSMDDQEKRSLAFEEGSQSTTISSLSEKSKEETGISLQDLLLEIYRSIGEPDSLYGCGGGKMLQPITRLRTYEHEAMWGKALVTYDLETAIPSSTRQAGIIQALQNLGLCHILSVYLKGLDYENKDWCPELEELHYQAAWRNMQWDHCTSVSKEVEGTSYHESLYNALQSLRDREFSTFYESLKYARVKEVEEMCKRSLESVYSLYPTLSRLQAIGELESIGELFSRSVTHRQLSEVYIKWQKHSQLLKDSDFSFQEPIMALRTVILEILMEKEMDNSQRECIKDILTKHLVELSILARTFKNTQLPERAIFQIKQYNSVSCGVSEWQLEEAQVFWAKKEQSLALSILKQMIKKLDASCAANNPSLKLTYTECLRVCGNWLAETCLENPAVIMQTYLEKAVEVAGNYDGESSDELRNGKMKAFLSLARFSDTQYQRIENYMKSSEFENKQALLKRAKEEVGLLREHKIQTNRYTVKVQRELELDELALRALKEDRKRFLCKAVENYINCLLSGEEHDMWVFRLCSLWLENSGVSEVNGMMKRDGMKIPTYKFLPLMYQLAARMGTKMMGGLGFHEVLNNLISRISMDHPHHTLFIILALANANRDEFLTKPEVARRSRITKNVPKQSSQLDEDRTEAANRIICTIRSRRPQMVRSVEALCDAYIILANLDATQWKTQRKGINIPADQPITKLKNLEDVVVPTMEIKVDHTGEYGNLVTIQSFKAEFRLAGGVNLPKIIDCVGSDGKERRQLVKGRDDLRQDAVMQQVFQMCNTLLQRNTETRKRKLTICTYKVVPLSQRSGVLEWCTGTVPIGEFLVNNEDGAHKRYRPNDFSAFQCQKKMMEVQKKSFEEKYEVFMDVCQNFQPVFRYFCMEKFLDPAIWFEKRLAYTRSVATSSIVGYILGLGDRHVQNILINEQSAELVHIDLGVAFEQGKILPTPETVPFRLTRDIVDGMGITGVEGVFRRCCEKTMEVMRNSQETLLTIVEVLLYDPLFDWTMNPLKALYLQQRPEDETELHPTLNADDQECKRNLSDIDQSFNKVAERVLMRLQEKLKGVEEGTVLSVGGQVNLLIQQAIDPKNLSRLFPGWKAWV
Assay: Assay a): ATM cellular potency (pATM Ser1981 in irradiated HT29 cells)
Type: cell-based
Settings: HT29 cells, X-ray irradiation, pATM Ser1981; Table 2; read-out: Assay a) ATM Cell IC50
IC50 listing for selected compounds.
Give a bare numeral; the unit nM is implied.

The following compounds have reported results that may help.
{"compound": "CO[C@H]1CC[C@H](n2c(=O)n(C)c3cnc4cc(F)c(-c5ccc(OCCCN6CCC6)cc5)cc4c32)C1 (single isomer, unassigned) [Example 23]", "property_name": "IC50", "quantitative_result": 1.42}
{"compound": "CO[C@H]1C[C@H](n2c(=O)n(C)c3cnc4ccc(-c5ccc(OCCCN6CCCC6)cc5)cc4c32)C1 [Example 42]", "property_name": "IC50", "quantitative_result": 0.689}
{"compound": "CO[C@@H]1CC[C@@H](n2c(=O)n(C)c3cnc4cc(F)c(-c5ccc(OCCCN6CCC6)cc5)cc4c32)C1 (single isomer, unassigned) [Example 24]", "property_name": "IC50", "quantitative_result": 0.917}
{"compound": "CO[C@H]1C[C@@H](n2c(=O)n(C)c3cnc4ccc(-c5ccc(OCCN(C)C)cc5)cc4c32)C1 [Example 55]", "property_name": "IC50", "quantitative_result": 11.3}
{"compound": "CO[C@H]1CCC[C@H](n2c(=O)n(C)c3cnc4ccc(-c5ccc(OCCCN(C)C)cc5)cc4c32)C1 (single isomer, unassigned) [Example 29]", "property_name": "IC50", "quantitative_result": 1.64}

Prompt line: Annotate the compound CO[C@H]1C[C@@H](n2c(=O)n(C)c3cnc4ccc(-c5ccc(OCCCN6CCCCC6)cc5)cc4c32)C1 [Example 43] with its measured IC50.
Response line: 0.254

Prompt line: Annotate the compound CN(C)CCCOc1ccc(-c2ccc3ncc4c(c3c2)n(C2CCOCC2)c(=O)n4C)cc1 [Example 44] with its measured IC50.
Response line: 0.364
